experiment: Volume of distribution in rat at 25 mg/kg, po or 5 mg/kg, iv; assay type: ADME, organism-based; conditions: in vivo, read-out: Vdss
endpoint name: Vd
Respond with the figure and its unit, in that order.

In [3]: df
Out[3]:
                                   compound  endpoint_name  obs_value
0  COc1ccc(CCC2(C3CCCC3)CC(O)=C(Sc3nc4nc(C)cc(C)n4n3)C(=O)O2)cc1Cl (configuration not stated)             Vd     2 L/kg

Now take the following compound into account.
QUERY: What value of Vd has been recorded for this entry: Cc1cc(C)n2nc(CC3=C(O)CC(CCc4ccc(C(C)(C)C#N)c(F)c4)(C4CCCC4)OC3=O)nc2n1 (single isomer, unassigned; enantiomer 1)
RESULT: 0.3 L/kg

###

test: Inhibition of HCV 1b NS5B delta21 RNA dependent RNA polymerase by enzymatic assay; set-up: species or system Hepacivirus hominis
endpoint name: IC50 (nM)
Field: numeric (nM). Do not append units.

In [3]: df
Out[3]:
                                   compound  endpoint_name  obs_value
0  CCOc1ccc(CCC2(C3CCCC3)CC(O)=C(Cc3nc4nc(C)cc(C)n4n3)C(=O)O2)cc1Cl (stereo not drawn)           IC50          4
1  COc1ccc(CCC2(C3CCCC3)CC(O)=C(Cc3nc4nc(C)cc(C)n4n3)C(=O)O2)cc1Cl (stereo not drawn)           IC50         20

QUERY: What value of IC50 has been recorded for this entry: Cc1cc(C)n2nc(CC3=C(O)CC(CCc4ccc(C(C)(C)C#N)c(F)c4)(C4CCCC4)OC3=O)nc2n1 (single isomer, unassigned; enantiomer 2)
RESULT: 1

###

experiment: Bioavailability in rat at 10 mg/kg, po; type: ADME, organism-based; conditions: in vivo
Entries and their measured bioavailability follow.
Could you kindly put the unit after your number?

                                   compound  obs_value
0  COc1ccc(CCC2(C3CCCC3)CC(O)=C(Cc3nc4nc(C)cc(C)n4n3)C(=O)O2)cc1Cl (configuration not stated)        42%

Read the next record carefully.
QUERY: Sample Cc1cc(C)n2nc(CC3=C(O)CC(CCc4ccc(C(C)(C)C#N)c(F)c4)(C4CCCC4)OC3=O)nc2n1 (single isomer, unassigned; enantiomer 2) — what was its bioavailability?
RESULT: 37%

###

experiment: Total plasma clearance in rat at 10 mg/kg, po or 2 mg/kg, iv; assay type: ADME, organism-based
endpoint name: clearance (mL/min/kg)
Your answer should be a plain number; it is taken to be in mL/min/kg.

QUERY: Item COc1ccc(CCC2(C3CCCC3)CC(O)=C(Cc3nc4nc(C)cc(C)n4n3)C(=O)O2)cc1Cl (stereo unspecified) has what recorded clearance?
RESULT: 8.3
